TARGET: UniProt Q96RI1
Sequence (Q96RI1 whole entry): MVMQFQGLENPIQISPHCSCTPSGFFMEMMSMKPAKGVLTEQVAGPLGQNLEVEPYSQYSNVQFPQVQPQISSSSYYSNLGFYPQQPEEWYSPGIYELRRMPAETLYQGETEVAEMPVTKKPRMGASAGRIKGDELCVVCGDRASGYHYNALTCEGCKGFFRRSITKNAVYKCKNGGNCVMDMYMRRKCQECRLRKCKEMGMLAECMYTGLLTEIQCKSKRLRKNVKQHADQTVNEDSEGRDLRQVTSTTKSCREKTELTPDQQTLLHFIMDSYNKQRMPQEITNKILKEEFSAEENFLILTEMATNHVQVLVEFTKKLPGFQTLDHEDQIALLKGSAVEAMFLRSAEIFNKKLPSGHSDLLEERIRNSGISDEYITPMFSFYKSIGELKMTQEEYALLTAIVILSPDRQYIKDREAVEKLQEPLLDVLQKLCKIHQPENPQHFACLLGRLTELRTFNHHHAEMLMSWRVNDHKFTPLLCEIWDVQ
Sequence (P19793 whole entry partner): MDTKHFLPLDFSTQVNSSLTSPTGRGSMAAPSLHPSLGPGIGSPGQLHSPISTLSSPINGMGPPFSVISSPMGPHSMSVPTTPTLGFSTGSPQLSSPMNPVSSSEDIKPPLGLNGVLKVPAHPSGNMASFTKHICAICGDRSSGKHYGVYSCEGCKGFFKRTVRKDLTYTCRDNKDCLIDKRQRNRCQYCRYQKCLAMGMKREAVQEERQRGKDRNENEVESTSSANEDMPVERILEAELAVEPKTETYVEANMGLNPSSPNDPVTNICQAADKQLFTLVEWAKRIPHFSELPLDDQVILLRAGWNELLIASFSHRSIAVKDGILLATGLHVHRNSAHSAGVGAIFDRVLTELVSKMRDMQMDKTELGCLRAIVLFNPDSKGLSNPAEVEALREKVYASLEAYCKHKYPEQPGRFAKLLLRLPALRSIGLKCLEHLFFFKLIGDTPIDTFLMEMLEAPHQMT
METHOD: FXR luciferase reporter gene assay (FXRE-luc) in HepG2 cells, antagonistic mode
Format: cell-based
SETUP CONDITIONS: HepG2; tested compound 10 µM, GW4064 1 µM; read-out: relative response (%) to the model FXR ligand activation (set to be 100%), GW4064 1 µM
Provide the reported remaining activity at 10 µM of each item.
The reply should contain only the number, in %.

Lab note: need remaining activity at 10 µM for CCC[C@@]1(O)C[C@@H]2C[C@H](O)CC[C@]2(C)C2CC[C@@]3(C)C(CC[C@@H]3[C@H](C)CCC(=O)O)C21 (stereo partly shown) on UniProt Q96RI1, anyone have it? 85.7

Requested read-out remaining activity at 10 µM, target or system UniProt Q96RI1, entry C[C@H](CCC(=O)O)[C@H]1CCC2C3C(CC[C@@]21C)[C@@]1(C)CC[C@@H](O)C[C@H]1C[C@]3(O)C1CC1 (stereo partly shown) 88.4

Give UniProt Q96RI1 remaining activity at 10 µM for C#C[C@@]1(O)C[C@@H]2C[C@H](O)CC[C@]2(C)C2CC[C@@]3(C)C(CC[C@@H]3[C@H](C)CCC(=O)O)C21 (stereo partly shown) 80.3

Value wanted: remaining activity at 10 µM (UniProt Q96RI1) of entry CCCCCCCCC[C@@]1(O)C[C@@H]2C[C@H](O)CC[C@]2(C)C2CC[C@@]3(C)C(CC[C@@H]3[C@H](C)CCC(=O)O)C21 (stereo partly shown) 84.8

Missing value: remaining activity at 10 µM, UniProt Q96RI1, entry C=CC[C@@]1(O)C[C@@H]2C[C@H](O)CC[C@]2(C)C2CC[C@@]3(C)C(CC[C@@H]3[C@H](C)CCC(=O)O)C21 (stereo partly shown) . Fill in? 93.2

Missing value: remaining activity at 10 µM, UniProt Q96RI1, entry C=CCCC[C@@]1(O)C[C@@H]2C[C@H](O)CC[C@]2(C)C2CC[C@@]3(C)C(CC[C@@H]3[C@H](C)CCC(=O)O)C21 (stereo partly shown) . Fill in? 93.6

Look up remaining activity at 10 µM with UniProt Q96RI1 for this compound: C[C@H](CCC(=O)O)[C@H]1CCC2C3C(CC[C@@]21C)[C@@]1(C)CC[C@@H](O)C[C@H]1C[C@@]3(C)O (stereo partly shown) 85
